Reference for the values: patent US11214803B2

experiment_summary: Tolerability in Balb/c mice, plasma chemistry markers (Example 10)
Assay type: in vivo
condition_summary: male Balb/c mice, 50 mg/kg subcutaneously twice a week for four weeks, day 26
Strand notation (5' to 3'): a small letter for the sugar, then the base; units joined by * are phosphorothioate-linked, units joined directly phosphodiester-linked; [ ] holds rarer units or linkages, { } end groups; capitals alone tell only the bases. k = constrained ethyl (cEt); [5mC] = 5-methylcytosine; d = 2'-deoxy (DNA)
measured_parameter: AST (U/L)

{"columns": ["substance", "measured_parameter", "test_value"],
 "data": [
  ["715609 (kT*kG*kT*dG*dT*dA*dG*dG*d[5mC]*dT*dG*dA*d[5mC]*kT*kT*kA; antisense) [compound 715609]", "AST (U/L)", "2941 U/L"],
  ["715491 (kA*kA*k[5mC]*d[5mC]*dA*dA*d[5mC]*dT*dA*dT*dT*dA*d[5mC]*kT*kT*k[5mC]) [compound 715491]", "AST (U/L)", "48 U/L"],
  ["715484 (kT*kA*k[5mC]*dT*d[5mC]*dT*dT*dT*dG*dG*dA*dA*dA*k[5mC]*k[5mC]*kA; antisense) [compound 715484]", "AST (U/L)", "110 U/L"],
  ["715557 (kG*kG*kA*dA*dG*dT*dT*dA*dT*dT*d[5mC]*dA*dG*k[5mC]*kA*kG; antisense) [compound 715557]", "AST (U/L)", "2377 U/L"],
  ["715487 (kA*kT*kT*dA*d[5mC]*dT*dT*d[5mC]*dA*dT*dA*dG*d[5mC]*kT*kT*kA) [compound 715487]", "AST (U/L)", "96 U/L"],
  ["715593 (kA*kT*kT*dT*d[5mC]*dT*dT*dT*dG*dG*d[5mC]*dA*dG*kA*kG*kA; antisense) [compound 715593]", "AST (U/L)", "610 U/L"],
  ["715480 (kG*kG*kA*dA*dA*d[5mC]*d[5mC]*dA*dT*dT*dA*dT*dT*kA*k[5mC]*kT; antisense) [compound 715480]", "AST (U/L)", "439 U/L"],
  ["715582 (kG*kT*k[5mC]*dA*dA*dG*d[5mC]*d[5mC]*dT*dG*dT*d[5mC]*dT*kG*kG*kA; antisense) [compound 715582]", "AST (U/L)", "2320 U/L"],
  ["715558 (k[5mC]*kA*kG*dG*dA*dA*dG*dT*dT*dA*dT*dT*d[5mC]*kA*kG*k[5mC]; antisense) [compound 715558]", "AST (U/L)", "91 U/L"]
]}

----------
Tested on: Yap1 mRNA
experiment_summary: Antisense inhibition of human Yap1 in A-431 cells by cEt gapmers, single dose (Example 3, RTS36584)
Type: cell-based
condition_summary: Table 10; A-431 cells, 5,000 cells per well, free uptake, 2,000 nM oligonucleotide, approx. 48 hours; primer probe set RTS36584; Yap1 mRNA normalized to RIBOGREEN, percent of untreated control
Strand notation (5' to 3'): a small letter for the sugar, then the base; units joined by * are phosphorothioate-linked, units joined directly phosphodiester-linked; [ ] holds rarer units or linkages, { } end groups; capitals alone tell only the bases. k = constrained ethyl (cEt); [5mC] = 5-methylcytosine; d = 2'-deoxy (DNA)
measured_parameter: YAP1 (% UTC)

{"columns": ["substance", "measured_parameter", "test_value"],
 "data": [
  ["958587 (kG*kG*kT*dG*dA*d[5mC]*dT*dG*dA*dA*dA*d[5mC]*dT*k[5mC]*kT*kA; antisense) [Compound 958587]", "YAP1 (% UTC)", "2 % UTC"],
  ["958602 (kT*kG*k[5mC]*d[5mC]*dA*dT*dG*dT*dT*d[5mC]*d[5mC]*dA*dT*kA*kT*kA; antisense) [Compound 958602]", "YAP1 (% UTC)", "16 % UTC"],
  ["958712 (antisense kT*kT*kA*dT*dA*dT*dA*dG*dG*dT*dT*dA*d[5mC]*kA*kG*kA) [Compound 958712]", "YAP1 (% UTC)", "52 % UTC"],
  ["958477 (antisense kA*kT*kT*dT*d[5mC]*d[5mC]*dG*dG*dT*dG*d[5mC]*dA*dT*kG*kT*kG) [Compound 958477]", "YAP1 (% UTC)", "2 % UTC"],
  ["958537 (k[5mC]*kA*kG*dG*dG*dT*d[5mC]*dA*dA*dT*dT*dT*dT*k[5mC]*kA*kG; antisense) [Compound 958537]", "YAP1 (% UTC)", "3 % UTC"],
  ["958592 (k[5mC]*kG*kT*dA*dA*dG*dA*dT*d[5mC]*dA*dA*dA*dG*k[5mC]*kA*k[5mC]; antisense) [Compound 958592]", "YAP1 (% UTC)", "12 % UTC"],
  ["958457 (antisense kG*kT*k[5mC]*dG*dA*dA*dG*dA*dT*dG*d[5mC]*dT*dG*kA*kG*k[5mC]) [Compound 958457]", "YAP1 (% UTC)", "5 % UTC"],
  ["958757 (antisense kG*kT*kG*dA*dT*d[5mC]*dT*dG*d[5mC]*dA*d[5mC]*dA*dT*kT*kG*kT) [Compound 958757]", "YAP1 (% UTC)", "5 % UTC"],
  ["958597 (k[5mC]*k[5mC]*k[5mC]*dA*dA*dT*dA*d[5mC]*dA*dA*d[5mC]*d[5mC]*dA*kA*kG*kA; antisense) [Compound 958597]", "YAP1 (% UTC)", "6 % UTC"],
  ["958522 (kA*kA*kT*dT*dA*dG*dT*d[5mC]*d[5mC]*dA*dA*dG*dG*kG*kA*kG; antisense) [Compound 958522]", "YAP1 (% UTC)", "32 % UTC"],
  ["958652 (kG*k[5mC]*kT*dA*d[5mC]*dG*dA*d[5mC]*dG*dG*d[5mC]*dT*dG*kG*k[5mC]*k[5mC]; antisense) [Compound 958652]", "YAP1 (% UTC)", "136 % UTC"],
  ["958482 (antisense kT*k[5mC]*kT*dG*dT*dA*dT*dT*dA*dG*d[5mC]*d[5mC]*dT*kG*kA*kA) [Compound 958482]", "YAP1 (% UTC)", "10 % UTC"],
  ["958462 (antisense kA*k[5mC]*kT*dG*dG*d[5mC]*dT*dA*d[5mC]*dG*d[5mC]*dA*dG*kG*kG*k[5mC]) [Compound 958462]", "YAP1 (% UTC)", "46 % UTC"],
  ["958737 (antisense kG*kG*kA*dA*dT*dA*d[5mC]*dA*dA*dG*d[5mC]*d[5mC]*d[5mC]*kG*kA*kG) [Compound 958737]", "YAP1 (% UTC)", "8 % UTC"],
  ["958732 (antisense kA*kG*k[5mC]*dA*d[5mC]*dG*dG*dT*dG*dT*dA*dG*d[5mC]*kT*kT*kT) [Compound 958732]", "YAP1 (% UTC)", "60 % UTC"],
  ["958662 (kG*kA*kA*d[5mC]*dA*dG*dA*dT*dA*dG*dG*dA*d[5mC]*kT*kA*k[5mC]; antisense) [Compound 958662]", "YAP1 (% UTC)", "51 % UTC"],
  ["958552 (kT*kA*kT*dT*dA*d[5mC]*dT*d[5mC]*d[5mC]*dT*dG*dT*dA*kG*kA*k[5mC]; antisense) [Compound 958552]", "YAP1 (% UTC)", "16 % UTC"],
  ["958532 (kG*kA*kA*dG*dT*dA*dG*dG*dA*dG*d[5mC]*dA*dA*kG*kT*k[5mC]; antisense) [Compound 958532]", "YAP1 (% UTC)", "2 % UTC"],
  ["958472 (antisense kT*k[5mC]*k[5mC]*dT*dT*dA*dG*dA*dT*d[5mC]*d[5mC]*dT*dT*k[5mC]*kA*k[5mC]) [Compound 958472]", "YAP1 (% UTC)", "5 % UTC"],
  ["958697 (antisense k[5mC]*kT*kA*dA*dA*dG*dA*dT*dG*dA*d[5mC]*dT*dA*k[5mC]*kT*kG) [Compound 958697]", "YAP1 (% UTC)", "39 % UTC"],
  ["958747 (antisense kG*kT*kA*dA*dA*dG*dA*dG*dG*dG*dT*dG*dA*k[5mC]*kA*kT) [Compound 958747]", "YAP1 (% UTC)", "106 % UTC"],
  ["958672 (kG*kA*kA*d[5mC]*dT*dT*dA*dG*dT*dT*d[5mC]*d[5mC]*d[5mC]*kT*kT*k[5mC]; antisense) [Compound 958672]", "YAP1 (% UTC)", "67 % UTC"],
  ["715483 (antisense k[5mC]*kT*k[5mC]*dT*dT*dT*dG*dG*dA*dA*dA*d[5mC]*d[5mC]*kA*kT*kT) [Compound 715483]", "YAP1 (% UTC)", "2 % UTC"],
  ["958817 (kT*kG*k[5mC]*d[5mC]*dA*dG*dG*dT*dA*dA*dG*d[5mC]*d[5mC]*kA*k[5mC]*kA; antisense) [Compound 958817]", "YAP1 (% UTC)", "30 % UTC"],
  ["958467 (antisense kG*kG*kT*dG*dG*d[5mC]*dA*dG*d[5mC]*d[5mC]*dA*dA*dA*kA*k[5mC]*kA) [Compound 958467]", "YAP1 (% UTC)", "32 % UTC"]
]}
